tgt: H. influenzae PBP3a/b (Haemophilus influenzae, UniProt P45059)
Sequence (P45059 66-580 limits assumed): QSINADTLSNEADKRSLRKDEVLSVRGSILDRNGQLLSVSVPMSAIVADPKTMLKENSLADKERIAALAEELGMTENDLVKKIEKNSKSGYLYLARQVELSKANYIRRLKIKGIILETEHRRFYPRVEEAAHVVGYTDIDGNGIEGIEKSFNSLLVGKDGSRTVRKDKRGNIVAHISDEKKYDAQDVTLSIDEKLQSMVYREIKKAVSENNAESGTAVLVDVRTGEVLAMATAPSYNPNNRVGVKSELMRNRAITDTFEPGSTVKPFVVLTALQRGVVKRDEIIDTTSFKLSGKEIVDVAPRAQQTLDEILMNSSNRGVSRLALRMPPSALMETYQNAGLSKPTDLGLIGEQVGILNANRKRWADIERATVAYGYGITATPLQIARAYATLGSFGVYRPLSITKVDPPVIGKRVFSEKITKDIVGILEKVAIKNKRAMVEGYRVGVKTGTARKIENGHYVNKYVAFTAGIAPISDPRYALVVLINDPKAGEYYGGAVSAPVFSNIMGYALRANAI
protocol.description: PBP competition assay with Bocillin FL
pIC50: −log10 of the molar value.
measurement.label: pIC50

Exercise: Using the record for NC(=O)[C@@H]1CC[C@@H]2CN1C(=O)N2OS(=O)(=O)O , report its pIC50.
Key: < 3.92

###

Assignment: determine reported pIC50 for the given molecules.
Target sequence: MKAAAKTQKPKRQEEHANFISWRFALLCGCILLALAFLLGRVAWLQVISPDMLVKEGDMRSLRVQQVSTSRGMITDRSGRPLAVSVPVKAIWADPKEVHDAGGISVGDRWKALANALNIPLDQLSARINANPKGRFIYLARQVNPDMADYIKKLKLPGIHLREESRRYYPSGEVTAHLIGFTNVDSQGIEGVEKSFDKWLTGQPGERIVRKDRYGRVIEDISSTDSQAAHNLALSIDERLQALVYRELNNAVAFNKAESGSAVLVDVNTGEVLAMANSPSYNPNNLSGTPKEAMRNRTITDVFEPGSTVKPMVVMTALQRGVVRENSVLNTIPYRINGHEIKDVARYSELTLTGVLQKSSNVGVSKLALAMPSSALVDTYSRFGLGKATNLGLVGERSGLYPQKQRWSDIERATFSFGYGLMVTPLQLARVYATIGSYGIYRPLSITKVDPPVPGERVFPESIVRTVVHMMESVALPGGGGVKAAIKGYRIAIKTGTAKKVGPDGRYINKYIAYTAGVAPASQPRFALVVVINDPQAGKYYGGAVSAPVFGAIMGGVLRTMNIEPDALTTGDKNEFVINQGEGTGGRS
pIC50: −log10 of the molar value.

Example entries and their recorded answers appear below.
Exercise: Quick check: pIC50 of CC(C)(O/N=C(\C(=O)N[C@@H]1C(=O)N2C(C(=O)[O-])=C(C[n+]3ccccc3)CS[C@H]12)c1csc(N)n1)C(=O)O ?
Key: 6.44

Exercise: Param item = NC(=O)[C@@H]1CC[C@@H]2CN1C(=O)N2OS(=O)(=O)O ; retrieve measured pIC50.
Key: < 4.31

Moving on to another molecule below.
Exercise: Using the record for CC1(C)S[C@@H]2[C@H](/N=C/N3CCCCCC3)C(=O)N2[C@H]1C(=O)O , report its pIC50.
Key: < 4.40

###

Target protein (sequence): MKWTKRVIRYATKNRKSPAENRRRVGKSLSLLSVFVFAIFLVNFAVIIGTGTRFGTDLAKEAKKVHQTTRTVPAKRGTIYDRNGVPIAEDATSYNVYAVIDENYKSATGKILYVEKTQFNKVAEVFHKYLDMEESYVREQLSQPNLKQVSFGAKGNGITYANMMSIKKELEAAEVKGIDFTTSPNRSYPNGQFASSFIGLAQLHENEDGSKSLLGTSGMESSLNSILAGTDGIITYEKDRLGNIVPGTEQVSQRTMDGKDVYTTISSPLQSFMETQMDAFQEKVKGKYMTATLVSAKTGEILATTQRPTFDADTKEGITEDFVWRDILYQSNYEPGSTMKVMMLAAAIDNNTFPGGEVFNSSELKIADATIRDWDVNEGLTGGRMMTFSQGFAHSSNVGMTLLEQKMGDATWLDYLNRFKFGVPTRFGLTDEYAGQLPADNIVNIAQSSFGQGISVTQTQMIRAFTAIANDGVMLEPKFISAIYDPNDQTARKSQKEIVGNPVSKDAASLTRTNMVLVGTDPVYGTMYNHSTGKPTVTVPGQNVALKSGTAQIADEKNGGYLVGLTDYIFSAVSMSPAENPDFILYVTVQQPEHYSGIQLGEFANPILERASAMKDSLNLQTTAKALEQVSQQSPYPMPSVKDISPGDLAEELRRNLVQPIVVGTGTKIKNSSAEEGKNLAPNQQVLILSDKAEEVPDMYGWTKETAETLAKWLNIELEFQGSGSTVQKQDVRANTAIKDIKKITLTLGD
measurement.label: IC50

Exercise: Recorded IC50 of NC(=O)[C@@H]1CC[C@@H]2CN1C(=O)N2OS(=O)(=O)O , please.
Key: > 241 µM

###

IC50 tested on S. aureus PBP3 (Staphylococcus aureus): recorded values
Sequence (Q9XDB3 1-691): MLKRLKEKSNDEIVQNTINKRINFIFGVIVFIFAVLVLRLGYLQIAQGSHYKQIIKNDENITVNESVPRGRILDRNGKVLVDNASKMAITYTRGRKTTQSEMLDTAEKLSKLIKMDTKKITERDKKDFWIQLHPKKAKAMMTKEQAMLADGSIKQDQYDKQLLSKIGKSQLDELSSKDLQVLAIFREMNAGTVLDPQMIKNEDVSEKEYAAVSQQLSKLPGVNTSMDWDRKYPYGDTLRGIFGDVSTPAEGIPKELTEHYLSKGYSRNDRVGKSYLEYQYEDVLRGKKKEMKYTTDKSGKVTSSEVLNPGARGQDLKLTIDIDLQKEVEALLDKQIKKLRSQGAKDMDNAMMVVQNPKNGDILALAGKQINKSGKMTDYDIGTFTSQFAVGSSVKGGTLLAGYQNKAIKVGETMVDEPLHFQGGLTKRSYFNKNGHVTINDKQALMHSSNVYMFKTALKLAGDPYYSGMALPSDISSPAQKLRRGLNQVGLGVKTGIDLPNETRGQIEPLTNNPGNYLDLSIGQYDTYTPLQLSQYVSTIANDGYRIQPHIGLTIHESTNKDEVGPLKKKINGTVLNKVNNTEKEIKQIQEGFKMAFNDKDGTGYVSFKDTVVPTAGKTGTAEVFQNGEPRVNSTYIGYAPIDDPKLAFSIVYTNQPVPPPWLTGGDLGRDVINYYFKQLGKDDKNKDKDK

Exercise: Missing value: IC50, S. aureus PBP3 (Staphylococcus aureus), entry CC(C)(O/N=C(\C(=O)N[C@@H]1C(=O)N2C(C(=O)[O-])=C(C[n+]3ccccc3)CS[C@H]12)c1csc(N)n1)C(=O)O [CAZ, ceftazidime] . Fill in?
Key: > 14.6 µM

Now, please, on to the next compound.
Exercise: Observed IC50 on S. aureus PBP3 (Staphylococcus aureus) for NC(=O)[C@@H]1CC[C@@H]2CN1C(=O)N2OS(=O)(=O)O [AVI, avibactam] , please.
Key: 588 µM

###

Target sequence: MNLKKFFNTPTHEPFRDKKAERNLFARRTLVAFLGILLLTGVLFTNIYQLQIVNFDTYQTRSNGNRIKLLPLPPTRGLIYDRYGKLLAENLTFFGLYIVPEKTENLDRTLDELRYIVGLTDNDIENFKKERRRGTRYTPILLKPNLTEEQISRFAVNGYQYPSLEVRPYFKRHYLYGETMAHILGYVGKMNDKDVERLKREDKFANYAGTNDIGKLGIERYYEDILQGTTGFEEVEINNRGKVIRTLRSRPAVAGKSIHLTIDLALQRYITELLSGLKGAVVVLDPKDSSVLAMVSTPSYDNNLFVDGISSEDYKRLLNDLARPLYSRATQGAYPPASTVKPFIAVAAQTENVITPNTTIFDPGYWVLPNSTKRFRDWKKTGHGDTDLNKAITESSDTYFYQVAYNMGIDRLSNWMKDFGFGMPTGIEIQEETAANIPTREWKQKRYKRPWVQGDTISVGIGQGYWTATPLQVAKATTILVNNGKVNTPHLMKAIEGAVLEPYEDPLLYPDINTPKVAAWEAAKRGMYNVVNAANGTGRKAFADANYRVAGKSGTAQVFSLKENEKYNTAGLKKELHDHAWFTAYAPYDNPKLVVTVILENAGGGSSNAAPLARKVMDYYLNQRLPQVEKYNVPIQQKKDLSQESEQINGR
measurement.label: IC50

Exercise: State the recorded IC50 for this entry: NC(=O)[C@@H]1CC[C@@H]2CN1C(=O)N2OS(=O)(=O)O [AVI, avibactam]
Key: 11.3 µM

###

tgt: H. influenzae PBP5 (Haemophilus influenzae, UniProt P44466)
measurement.label: IC50

Exercise: What value of measured IC50 is listed for NC(=O)[C@@H]1CC[C@@H]2CN1C(=O)N2OS(=O)(=O)O [AVI, avibactam] ?
Key: > 121 µM

###

tgt: P. aeruginosa PBP3 (Pseudomonas aeruginosa)
protocol.description: PBP competition assay with Bocillin FL
measurement.label: pIC50
One number for each entry, as −log10 of the molar value.

Exercise: Field: pIC50 (P. aeruginosa PBP3 (Pseudomonas aeruginosa)). Entry: CC(C)(O/N=C(\C(=O)N[C@@H]1C(=O)N2C(C(=O)[O-])=C(C[n+]3ccccc3)CS[C@H]12)c1csc(N)n1)C(=O)O
Key: 7.14

Next item in the queue.
Exercise: // lookup pIC50 | system=P. aeruginosa PBP3 (Pseudomonas aeruginosa) | key= NC(=O)[C@@H]1CC[C@@H]2CN1C(=O)N2OS(=O)(=O)O
Key: 5.17

###

Here's what we have: pIC50 numbers for E. coli PBP1a (Escherichia coli).
pIC50: −log10 of the molar value.

Exercise: Consider the molecule shown here: CC(C)(O/N=C(\C(=O)N[C@@H]1C(=O)N2C(C(=O)[O-])=C(C[n+]3ccccc3)CS[C@H]12)c1csc(N)n1)C(=O)O What is its recorded pIC50?
Key: 4.56

Exercise: Item CC1(C)S[C@@H]2[C@H](/N=C/N3CCCCCC3)C(=O)N2[C@H]1C(=O)O has what recorded pIC50?
Key: < 4.40

More entries:
Exercise: Value lookup for pIC50; key = NC(=O)[C@@H]1CC[C@@H]2CN1C(=O)N2OS(=O)(=O)O
Key: < 4.31
